Tested on: SN12C
method-notes: NCI tumour cell line growth inhibition, 48 h
Activity calls are given as the source filed them. Cut-off read from the data, not from the text of the source: active = GI50 up to about 1.1 µM and inactive = higher.
reported-endpoint: GI50

1) Cn1ncc2c(NCCc3ccccc3)nc(Cl)nc21 ... 44.6 µM (inactive)
2) CC(C)=CC(=O)O[C@@H]1CC(C)(C)CC2C3=CCC4[C@]56CC[C@](O)(OC5)C(C)(C)C6CC[C@@]4(C)C3(C)CC[C@]21C(=O)O (stereo partly specified) ... 53.2 µM (inactive)
3) CCCCCCCCCCCCCC(=O)CSCCNC(=O)CCNC(=O)[C@@H](O)C(C)(C)COP(=O)(O)OP(=O)(O)OCC1OC(n2cnc3c(N)ncnc32)C(O)C1OP(=O)(O)O (stereo partly specified) ... 16.4 µM (inactive)
4) C[C@H]1NC(=O)C2CCCCN2C(=O)CN(C)C(=O)CNC(=O)C2CCCCN2C(=O)[C@@H](NC(=O)c2nc3ccccc3cc2O)[C@@H](C)NC(=O)C2CCCCN2C(=O)CN(C)C(=O)CNC(=O)[C@@H]2CCCCN2C(=O)C1NC(=O)c1nc2ccccc2cc1O (stereo partly specified) ... 0.313 µM (active)
5) O/N=C(\c1nc2ccc(Cl)cc2nc1O)C(O)c1ccc(Cl)cc1Cl (stereo unspecified) ... > 100 µM (inactive)
6) CC1=CC(=O)/C(=C/NC(=S)Nc2ccc(S(N)(=O)=O)cc2)C(=O)O1 ... > 100 µM (inactive)
7) COC(=O)C(CC=O)C(=O)C(=O)Nc1cccc(C(F)(F)F)c1 (stereo unspecified) ... > 100 µM (inactive)
8) CC(C)(C)c1ccc(Oc2ccc(C#N)c(C#N)c2)c(C(C)(C)C)c1 ... 43 µM (inactive)
9) O=C1C[C@@H](C(=O)OCc2ccccc2)NC(=O)C[C@@H](C(=O)OCc2ccccc2)NC(=O)C[C@@H](C(=O)OCc2ccccc2)N1 ... > 100 µM (inactive)
10) CC(C)(C)OC(=O)NCCCCCCC(=O)Cc1ccccc1 ... > 100 µM (inactive)
11) CC(NNC(=O)c1cc[n+]([BH2-]C#N)cc1)c1ccc(F)cc1 (stereo unspecified) ... > 100 µM (inactive)
12) COc1ccc(/C=N/N=C(\N)NO)c(OC)c1 ... 67.8 µM (inactive)
13) CN1CCN(c2ccc3nc(C4=C(O)C(=O)c5c(nc(CCl)n5C)C4=O)[nH]c3n2)CC1 ... 9.98 µM (inactive)
14) C[n+]1cccc(NC(=O)c2ccc(NC(=O)C34CCC(C(=O)Nc5ccc(C(=O)Nc6ccc[n+](C)c6)cc5)(CC3)CC4)cc2)c1 ... 3.23 µM (inactive)
15) COc1ccc(-c2cc(C(O)C3CCCCN3)c3ccccc3n2)cc1 (stereo unspecified) ... 10.6 µM (inactive)
16) CCOC(=O)N1C=CC(=C2C(=C3C=CN(C(=O)OCC)C=C3)C(=C3C=CN(C(=O)OCC)C=C3)C2=C2C=CN(C(=O)OCC)C=C2)C=C1 ... 20.2 µM (inactive)
17) CC1(C)COC(C2(C)C(=O)C=C(c3ccccc3)c3ccccc32)=N1 (stereo unspecified) ... 30.5 µM (inactive)
18) COc1ccc(C2C3=C(COC3=O)Oc3cc4c(cc32)OCO4)cc1OC (stereo unspecified) ... 5.26 µM (inactive)
19) COc1cc2c(cc1OC)C1c3ccccc3CCN1CC2 (stereo unspecified) ... 62.5 µM (inactive)
20) Cc1cccc2nc3cccc(C(=O)NCCC[N+](C)(CCCNC(=O)c4cccc5nc6cccc(C)c6nc45)Cc4ccc([N+](=O)[O-])n4C)c3nc12 ... 0.839 µM (active)
21) CCCCCCCC/C=C\CCCCCCCCNc1ccn(C2OC(COP(=O)(O)OC3CC(n4cc(F)c(=O)[nH]c4=O)OC3CO)C(O)C2O)c(=O)n1 (stereo unspecified) ... > 100 µM (inactive)
22) CC(C)(C)C(=O)C(c1ccc(-c2cscn2)cc1)c1ccc(-c2cscn2)cc1 ... 34.7 µM (inactive)
23) OC1CCC(C2C3CCCCC3C3CCCCC3C2C2CCC(O)CC2)CC1 (stereo unspecified) ... 5.13 µM (inactive)
24) CC(=O)Oc1ccc2ccc(=O)oc2c1OC(C)=O ... 19 µM (inactive)
25) O=C(Nc1nc2ccc([N+](=O)[O-])cc2s1)C(=O)C(C1OC(=O)c2ccccc21)[N+](=O)[O-] (stereo unspecified) ... 75 µM (inactive)
26) COC(=O)C(Cc1nc2ccccc2nc1O)C(=O)C(=O)Nc1cc(C(F)(F)F)ccc1Cl (stereo unspecified) ... 20.5 µM (inactive)
27) O=c1n(CCCCn2c(=O)n(CC3CS3)c3ccccc32)c2ccccc2n1CC1CS1 (stereo unspecified) ... 14.1 µM (inactive)
28) C=CCN1CCN([C@H](c2ccc(C(=O)N(CC)CC)cc2)c2cccc(OC)c2)CC1 ... > 25 µM (inactive)
29) CN(C)c1ccc(/C=C/C(=O)c2ccccc2)cc1Br ... 21.1 µM (inactive)
30) CNc1ncnc2c1cnn2Cc1cn(CCCCO)nn1 ... > 100 µM (inactive)
31) CC(=O)/C(C)=N/NC(=O)c1ccccc1O ... > 10 µM (inactive)
32) Cc1ccc(S(=O)(=O)Nc2ccccc2C(=O)c2ccc(C)c(C)c2)cc1 ... > 100 µM (inactive)
33) O=c1c(Cc2cccc(Cc3c(O)oc4ccccc4c3=O)c2)c(O)oc2ccccc12 ... > 100 µM (inactive)
34) CCOC(=O)C(CC#Cc1ccc(C#CCC(NC(C)=O)C(=O)OCC)cc1)NC(C)=O (stereo unspecified) ... > 100 µM (inactive)
35) COc1cc(/C=C2/CCS(=O)(=O)c3ccc(C)cc3C2=O)cc(OC)c1OC ... 3.66 µM (inactive)
36) CN(CCO)CCC1COc2ccccc2O1 (stereo unspecified) ... > 10 µM (inactive)

====

Tested on: DMS-114
method-notes: NCI tumour cell line growth inhibition, 48 h
Calls of active or inactive are those of the source. Cut-off read from the data, not from the text of the source: active = GI50 up to about 1.1 µM and inactive = higher.
Outcomes: active, inactive

1) Cn1c(CCC#N)nc2ccc(Br)cc2c1=O ... inactive
2) COc1cc([C@@H]2c3cc4c(cc3[C@@H](NC(=O)c3cccc(F)c3)C3COC(=O)[C@@H]32)OCO4)cc(OC)c1O (some centres undefined) ... active
3) COC1=CC(C)C2C[C@H]3O[C@H](O)C[C@H]4C(C)C(=O)C(O)C([C@@]2(C)C1=O)[C@@]34C (some centres undefined) ... inactive
4) CC1CCCc2c1c1ccc3c(O)cccc3c1oc2=O (centres undefined) ... inactive

====

Observed GI50 for HCT-15, reported per entry below.
reported-endpoint: GI50 (µM)

1) CCN1CCC(O)(c2ccc(Oc3ccc(F)cc3)cc2)C(C(=O)c2ccc(Oc3ccc(F)cc3)cc2)C1 (stereo not given) ... 11.5
2) C[C@H]1S[C@H](c2c(F)cccc2F)n2c1nc1ccccc12 ... 47
3) O=C1C2Nc3ccccc3SC2C(=O)N1c1ccc(Br)cc1 (stereo not given) ... 78.7
4) Oc1ccc(O)c(CNc2ccc(C(O)C(F)(F)F)cc2)c1 (stereo not given) ... 13.7
5) O=[N+]([O-])c1cccc2nc3ccccc3c(NCCC[N+]3([O-])CCCCC3)c12 ... 16
6) C(=C/c1nnnn1-c1ccccc1)/Nc1ccccc1 ... 21.5
7) Cc1ccc(NC(=O)c2cccc([N+](=O)[O-])c2O)c([N+](=O)[O-])c1 ... 14.4
8) Cn1c2ccccc2c2ccc3c(c21)C(=O)C=CC3=O ... 4.56
9) Cc1ccc(O)c(Cc2nc3ccccc3nc2-c2cccc(Cl)c2)c1 ... 15.4
10) CC(=O)/C(C)=N/NC(=O)c1ccccc1O ... 97.5
11) CCOP1(=O)C=C(Sc2ccc([N+](=O)[O-])cc2[N+](=O)[O-])C(C)(C)O1 (stereo not given) ... 14.7

====

Test system: KM12
method-notes: NCI tumour cell line growth inhibition, 48 h
Active and inactive are the calls of the source. Cut-off read from the data, not from the text of the source: active = GI50 up to about 1.1 µM and inactive = higher.
The reader will find reported GI50 values listed item by item below.
reported-endpoint: GI50

1) OC1CCC(C2C3CCCCC3C3CCCCC3C2C2CCC(O)CC2)CC1 (centres undefined) ... 3.33 µM (inactive)
2) COc1ccc(C[C@H]2NC(=O)/C=C/C[C@@H]([C@H](C)[C@H]3O[C@@H]3c3ccccc3)OC(=O)[C@H](CC(C)C)OC(=O)[C@H](C)CNC2=O)cc1 ... 3.93e-05 µM (active)
3) C[C@@H](CC(=O)OCc1ccccc1)OC1OC(COC(=O)C(C)(C)C)C(OC(=O)C(C)(C)C)C(OC(=O)C(C)(C)C)C1OC(=O)C(C)(C)C (some centres undefined) ... > 100 µM (inactive)
4) CCCCC/C(=N\c1[nH]cnc1C(N)=O)OCC ... > 100 µM (inactive)
5) Cc1cc(Cl)ccc1N1C(=O)C(=O)C(c2nc3ccccc3o2)C(=O)C1=O ... > 100 µM (inactive)
6) COC1=CC(C)C2C[C@H]3O[C@H](O)C[C@H]4C(C)C(=O)C(O)C([C@@]2(C)C1=O)[C@@]34C (some centres undefined) ... > 100 µM (inactive)
7) NN/C(=N\S(=O)(=O)c1cc(S(=O)(=O)c2ccccc2)cs1)Nc1ccc(Cl)cc1 ... 26.1 µM (inactive)
8) NC(=S)NNc1c([N+](=O)[O-])cnn(-c2ccccc2)c1=O ... 14.7 µM (inactive)
9) CC(=O)Oc1ccccc1C(=O)O [ASPIRIN] ... > 100 µM (inactive)
